- Measured target: AVPR1A (Homo sapiens, UniProt P37288)
- Sequence (P37288 whole entry): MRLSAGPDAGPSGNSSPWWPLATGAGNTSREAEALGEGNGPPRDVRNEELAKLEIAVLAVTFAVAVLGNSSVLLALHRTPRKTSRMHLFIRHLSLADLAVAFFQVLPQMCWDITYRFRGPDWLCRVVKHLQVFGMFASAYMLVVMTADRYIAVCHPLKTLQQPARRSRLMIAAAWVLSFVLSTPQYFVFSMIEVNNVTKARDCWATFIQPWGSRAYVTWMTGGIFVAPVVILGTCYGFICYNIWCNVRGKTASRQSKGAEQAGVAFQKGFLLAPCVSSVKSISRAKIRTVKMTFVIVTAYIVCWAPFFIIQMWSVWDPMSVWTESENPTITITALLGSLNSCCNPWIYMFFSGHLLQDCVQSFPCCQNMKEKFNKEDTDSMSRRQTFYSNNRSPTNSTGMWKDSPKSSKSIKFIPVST
- Assay remarks: Calcium Flux AVPR1A Agonist
- Condition notes: Calcium Flux AVPR1A Agonist; read-out: RC50, result type EC50
For each of the compounds below, state its EC50.

Compound	Readout label	Result
Clc1cccc(C#Cc2n[nH]c3ncccc23)c1 [Compound 10.1]	EC50	> 10 µM

Kindly consider the entry below.
Supply reported EC50 belonging to this compound: CC(C)(C)c1ccc(C#CC(O)c2ccccc2)cc1 (racemic) [Compound 3.3] > 10 µM

====

- Measured target: NAV1.5 (Homo sapiens, UniProt Q14524)
- Sequence (Q14524 whole entry): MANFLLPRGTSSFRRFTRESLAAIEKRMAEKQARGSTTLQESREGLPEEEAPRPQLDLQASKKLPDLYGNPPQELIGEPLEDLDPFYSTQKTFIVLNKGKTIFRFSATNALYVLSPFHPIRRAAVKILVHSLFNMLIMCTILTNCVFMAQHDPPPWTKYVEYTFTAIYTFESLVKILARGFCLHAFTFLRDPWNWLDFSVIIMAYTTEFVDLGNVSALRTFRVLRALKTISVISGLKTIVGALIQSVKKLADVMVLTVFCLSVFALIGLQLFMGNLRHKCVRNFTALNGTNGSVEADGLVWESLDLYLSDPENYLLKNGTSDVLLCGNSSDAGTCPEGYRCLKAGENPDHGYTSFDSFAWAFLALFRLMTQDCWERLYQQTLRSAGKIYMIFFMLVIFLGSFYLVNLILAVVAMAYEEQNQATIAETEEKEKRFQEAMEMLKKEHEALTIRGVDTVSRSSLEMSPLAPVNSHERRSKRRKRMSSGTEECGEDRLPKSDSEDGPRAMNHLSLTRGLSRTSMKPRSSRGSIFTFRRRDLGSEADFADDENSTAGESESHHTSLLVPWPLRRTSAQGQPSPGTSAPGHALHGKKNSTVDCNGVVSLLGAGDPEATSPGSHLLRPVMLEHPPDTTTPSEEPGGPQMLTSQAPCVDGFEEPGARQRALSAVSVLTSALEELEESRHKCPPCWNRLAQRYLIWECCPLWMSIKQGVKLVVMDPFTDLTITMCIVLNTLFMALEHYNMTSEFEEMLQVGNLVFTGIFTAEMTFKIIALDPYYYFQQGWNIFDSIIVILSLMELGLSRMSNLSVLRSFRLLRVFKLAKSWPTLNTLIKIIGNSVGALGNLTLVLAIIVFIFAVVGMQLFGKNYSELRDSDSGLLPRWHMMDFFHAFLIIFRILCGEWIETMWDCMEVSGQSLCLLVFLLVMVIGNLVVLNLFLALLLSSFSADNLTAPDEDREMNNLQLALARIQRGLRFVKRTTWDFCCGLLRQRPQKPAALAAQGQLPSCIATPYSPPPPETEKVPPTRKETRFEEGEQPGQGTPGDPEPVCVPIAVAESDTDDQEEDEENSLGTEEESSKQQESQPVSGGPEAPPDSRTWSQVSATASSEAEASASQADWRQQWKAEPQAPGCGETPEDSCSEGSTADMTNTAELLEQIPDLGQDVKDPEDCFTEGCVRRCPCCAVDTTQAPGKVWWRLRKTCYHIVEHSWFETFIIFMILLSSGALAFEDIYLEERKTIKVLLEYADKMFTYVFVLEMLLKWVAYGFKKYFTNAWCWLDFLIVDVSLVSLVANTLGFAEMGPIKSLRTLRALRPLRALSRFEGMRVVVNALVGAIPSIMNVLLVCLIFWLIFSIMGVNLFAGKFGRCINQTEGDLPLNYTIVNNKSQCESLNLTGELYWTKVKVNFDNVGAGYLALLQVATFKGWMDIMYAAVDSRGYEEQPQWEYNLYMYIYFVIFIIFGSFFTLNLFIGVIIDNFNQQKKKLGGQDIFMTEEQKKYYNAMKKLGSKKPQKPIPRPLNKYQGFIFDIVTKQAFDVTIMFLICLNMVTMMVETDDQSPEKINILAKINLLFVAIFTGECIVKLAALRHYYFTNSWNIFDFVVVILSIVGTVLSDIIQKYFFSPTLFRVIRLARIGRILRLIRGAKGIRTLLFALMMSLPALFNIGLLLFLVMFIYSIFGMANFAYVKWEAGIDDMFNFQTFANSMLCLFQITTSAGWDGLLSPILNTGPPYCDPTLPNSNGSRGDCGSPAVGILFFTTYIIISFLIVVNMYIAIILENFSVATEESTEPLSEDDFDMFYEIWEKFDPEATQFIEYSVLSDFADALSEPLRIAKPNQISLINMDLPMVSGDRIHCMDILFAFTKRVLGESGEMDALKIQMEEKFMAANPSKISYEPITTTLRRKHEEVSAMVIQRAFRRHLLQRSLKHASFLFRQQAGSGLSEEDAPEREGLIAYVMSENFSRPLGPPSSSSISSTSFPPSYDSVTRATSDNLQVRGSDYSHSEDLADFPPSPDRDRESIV
- Assay remarks: Ion Channel NAV1.5 Blocker
- Format: cell-based
- Condition notes: Ion Channel NAV1.5 Blocker; read-out: Max response
Readout label: Emax at 30 min (%)
Numbers only, in %.

Molecule	Unit string	Emax at 30 min
CC(C)(C)c1ccc(C#CC(O)c2ccccc2)cc1 (racemic) [Compound 3.3]	%	59.9

Kindly consider the entry below.
Supply reported Emax at 30 min belonging to this molecule: Clc1cccc(C#Cc2n[nH]c3ncccc23)c1 [Compound 10.1] 21.5

====

- System: EKP-induced epileptiform discharges in zebrafish larvae
- Assay remarks: Zebrafish EKP seizure model, electrophysiology (non-invasive LFP recordings, PSD analysis)
- Type: in vivo, zebrafish (Danio rerio)
- Condition notes: 2 μM, 22 h incubation, 7 dpf larvae; mean, normalized PSD 20-90 Hz
For each of the compounds below, state its efficacy against EKP-induced epileptiform discharges 2 μM.
Numbers only, in %.

Worked cases, efficacy against EKP-induced epileptiform discharges 2 μM given:
Compound	Number
CN(C)c1ncccc1C(=O)C#Cc1cccc(Cl)c1	−52
Clc1cccc(C#Cc2n[nH]c3ncccc23)c1	−30
CC(C)(C)c1ccc(C#CC(=O)c2ncccc2N)cc1	45
Nc1ncccc1C(=O)C#Cc1cccc(C(F)(F)F)c1	61

Hi! Can you tell me efficacy against EKP-induced epileptiform discharges 2 μM for each of these compounds?
1. CC(C)(C)c1ccc(C#CC(O)c2ccccc2O)cc1 (racemic)
2. CCCCCC#CC(=O)c1cccnc1N
3. Cn1nc(C#Cc2cccc(Cl)c2)c2cccnc21
4. COc1ccc(C#CC(=O)c2ccccc2)cc1
5. COc1ccccc1C(O)C#Cc1ccc(C(C)(C)C)cc1 (racemic)
6. COc1ccc(C#CC(=O)c2cccnc2N)cc1
7. O=C(C#Cc1cccc(Cl)c1)c1cccnc1

1: 26; 2: 91; 3: 19; 4: 26; 5: 79; 6: 35; 7: −43

====

For each of the molecules below, state its Papp A→B at 10 μM.
- Assay remarks: Caco-2 permeability
- Assay type: in vitro ADME
- Condition notes: human; Caco-2, pH 6.5 and 7.4, 10 μM, apical to basolateral
Numbers only, in ×10⁻⁶ cm/s.

Molecule	Number
CC(C)(C)c1ccc(C#CC(O)c2ccccc2)cc1 (racemic) [Compound 3.3]	0.4

Kindly consider the entry below.
Supply reported Papp A→B at 10 μM belonging to this molecule: Clc1cccc(C#Cc2n[nH]c3ncccc23)c1 [Compound 10.1] 3.3

====

For each of the compounds below, state its Emax at 30 min.
- Measured target: hERG (Homo sapiens)
- Sequence (Q12809 whole entry): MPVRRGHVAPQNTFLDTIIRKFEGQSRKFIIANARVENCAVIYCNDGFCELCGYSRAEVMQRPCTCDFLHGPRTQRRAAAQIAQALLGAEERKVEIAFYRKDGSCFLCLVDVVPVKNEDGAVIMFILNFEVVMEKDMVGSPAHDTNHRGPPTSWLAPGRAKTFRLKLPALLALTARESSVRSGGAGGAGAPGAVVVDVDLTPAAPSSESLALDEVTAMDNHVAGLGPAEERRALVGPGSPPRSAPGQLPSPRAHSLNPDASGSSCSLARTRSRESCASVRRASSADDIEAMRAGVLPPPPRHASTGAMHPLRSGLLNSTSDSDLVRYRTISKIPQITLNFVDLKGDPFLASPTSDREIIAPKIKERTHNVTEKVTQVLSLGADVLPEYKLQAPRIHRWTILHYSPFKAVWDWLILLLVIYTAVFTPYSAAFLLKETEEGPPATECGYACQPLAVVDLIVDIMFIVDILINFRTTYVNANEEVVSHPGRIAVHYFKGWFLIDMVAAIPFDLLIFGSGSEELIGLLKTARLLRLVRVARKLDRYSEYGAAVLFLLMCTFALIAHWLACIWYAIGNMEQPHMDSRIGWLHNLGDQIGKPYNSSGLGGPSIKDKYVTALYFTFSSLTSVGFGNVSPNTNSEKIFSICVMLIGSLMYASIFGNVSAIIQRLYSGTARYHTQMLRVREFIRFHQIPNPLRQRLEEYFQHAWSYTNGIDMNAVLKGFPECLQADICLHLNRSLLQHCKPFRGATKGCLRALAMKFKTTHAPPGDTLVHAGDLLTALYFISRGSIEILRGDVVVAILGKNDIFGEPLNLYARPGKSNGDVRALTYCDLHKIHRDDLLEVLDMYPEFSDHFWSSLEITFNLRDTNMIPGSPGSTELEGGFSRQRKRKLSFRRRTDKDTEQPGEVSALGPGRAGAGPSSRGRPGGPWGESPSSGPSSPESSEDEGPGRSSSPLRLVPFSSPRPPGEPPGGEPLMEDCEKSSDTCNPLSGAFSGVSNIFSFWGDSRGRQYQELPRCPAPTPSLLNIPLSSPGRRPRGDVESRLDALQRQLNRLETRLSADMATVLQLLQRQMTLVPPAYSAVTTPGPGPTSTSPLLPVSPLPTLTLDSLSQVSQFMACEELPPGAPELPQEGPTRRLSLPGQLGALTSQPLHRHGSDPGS
- Assay remarks: Ion Channel hERG Blocker
- Type: cell-based
- Condition notes: human, read-out: Max response
Numbers only, in %.

Compound	Emax at 30 min [%]
CC(C)(C)c1ccc(C#CC(O)c2ccccc2)cc1 (racemic) [Compound 3.3]	3.8

Kindly consider the entry below.
Supply reported Emax at 30 min belonging to this compound: Clc1cccc(C#Cc2n[nH]c3ncccc23)c1 [Compound 10.1] 6.6
